- TESTED_ON: NRAS Q61K (Homo sapiens, UniProt P01111+P62937, Q61K)
- Sequence (P01111 whole entry Q61K, one chain of several): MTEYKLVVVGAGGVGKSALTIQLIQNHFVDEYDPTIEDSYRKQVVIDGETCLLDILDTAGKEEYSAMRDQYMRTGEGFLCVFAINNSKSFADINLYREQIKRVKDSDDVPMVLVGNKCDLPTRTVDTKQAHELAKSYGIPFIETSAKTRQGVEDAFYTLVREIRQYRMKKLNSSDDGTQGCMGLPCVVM
- EXPERIMENTAL_DETAILS: Disruption of BRAF RBD interaction with Ras (FRET / MOA assay, with Cyclophilin A)
- Assay type: biochemical
- TEST_CONTEXT: NRAS Q61K; read-out: NRAS Q61K FRET data IC50
This listing pairs molecules with measured IC50.

Examples from the recorded data:
1) CCn1c(-c2cccnc2[C@H](C)OC)c2c3cc(ccc31)-c1nc(cs1)C[C@H](NC(=O)[C@H](C(C)C)N(C)C(C)=O)C(=O)N1CCC[C@H](N1)C(=O)OCC(C)(C)C2
0.1 to 1 µM
2) C=CC(=O)N1CC[C@H](C(=O)N(C)[C@H](C(=O)N[C@H]2Cc3cc(O)cc(c3)-c3ccc4c(c3)c(c(-c3ccccc3[C@H](C)OC)n4CC)CC(C)(C)COC(=O)[C@@H]3CCCN(N3)C2=O)C(C)C)C1
0.1 to 1 µM
3) CCn1c(-c2cc(C3CCN(C)CC3)cnc2[C@H](C)OC)c2c3cc(ccc31)-c1csc(n1)C[C@H](NC(=O)[C@H](C(C)C)N(C)C(=O)N(C)C)C(=O)N1CCC[C@H](N1)C(=O)OCC(C)(C)C2 (atropisomer, axis not shown)
0.01 to 0.1 µM
4) CCn1c(-c2cccnc2[C@H](C)OC)c2c3cc(ccc31)-c1csc(n1)C[C@H](NC(=O)[C@H](C(C)C)N(C)C(=O)N1CCN3CCOC[C@H]3C1)C(=O)N1CCC[C@H](N1)C(=O)OCC(C)(C)C2
0.1 to 1 µM
5) CCn1c(-c2cccnc2[C@H](C)OC)c2c3cc(ccc31)-c1cc(O)cc(c1)C[C@H](NC(=O)C1[C@H]3COC[C@@H]13)C(=O)N1CCC[C@H](N1)C(=O)OCC(C)(C)C2 (some centres unmarked)
1 to 10 µM

Item under review: CCn1c(-c2cccnc2[C@H](C)OC)c2c3cc(ccc31)-c1cc(O)cc(c1)C[C@H](NC(=O)[C@H](C(C)C)N(C)C(=O)[C@H]1C[C@@H]1O)C(=O)N1CCC[C@H](N1)C(=O)OCC(C)(C)C2 (single isomer, unassigned) . Reported IC50? 0.1 to 1 µM

Item under review: CCn1c(-c2cccnc2[C@H](C)OC)c2c3cc(ccc31)-c1csc(n1)C[C@H](NC(=O)[C@H](C(C)C)N(C)C(=O)N1CC3(CC(N(C)CCO)C3)C1)C(=O)N1CCC[C@H](N1)C(=O)OCC(C)(C)C2 (atropisomer, axis not shown) . Reported IC50? 0.01 to 0.1 µM

Item under review: CCn1c(-c2cccnc2[C@H](C)OC)c2c3cc(ccc31)-c1csc(n1)C[C@H](NC(=O)[C@H](C(C)C)N(C)C(=O)N1CCCC1)C(=O)N1CCC[C@H](N1)C(=O)OCC(C)(C)C2 (atropisomer, axis not shown) . Reported IC50? 0.01 to 0.1 µM

----------
- TESTED_ON: KRAS G12V (Homo sapiens, UniProt P01116+P62937, G12V)
- Sequence (P01116 1-169 isoform P01116-2 G12V limits assumed): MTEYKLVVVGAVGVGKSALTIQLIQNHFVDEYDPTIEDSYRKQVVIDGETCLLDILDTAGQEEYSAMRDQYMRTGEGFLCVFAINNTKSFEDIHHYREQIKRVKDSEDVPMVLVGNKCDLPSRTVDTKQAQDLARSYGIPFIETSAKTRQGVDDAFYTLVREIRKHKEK
- Sequence (P62937 whole entry): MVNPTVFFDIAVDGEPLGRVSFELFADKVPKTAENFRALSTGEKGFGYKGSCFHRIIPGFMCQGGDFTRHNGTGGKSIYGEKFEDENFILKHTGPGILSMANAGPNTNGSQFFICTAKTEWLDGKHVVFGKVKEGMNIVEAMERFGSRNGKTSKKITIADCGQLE
- EXPERIMENTAL_DETAILS: Disruption of BRAF RBD interaction with Ras (FRET / MOA assay, with Cyclophilin A)
- Format: biochemical
- TEST_CONTEXT: KRAS G12V FRET data IC50, KRAS G12V
READOUT_KIND: IC50

1. CCn1c(-c2ccccc2CCOC)c2c3cc(ccc31)-c1cc(O)cc(c1)C[C@H](NC(=O)[C@H](C(C)C)N(C)C(=O)CCN)C(=O)N1CCC[C@H](N1)C(=O)OCC(C)(C)C2 [Example A70]
> 10000 nM
2. CCn1c(-c2cccnc2[C@H](C)OC)c2c3cc(ccc31)-c1csc(n1)C[C@H](NC(=O)[C@H](C(C)C)N(C)C(=O)OC)C(=O)N1CCC[C@H](N1)C(=O)OCC(C)(C)C2 [Example A138]
100 to 1000 nM
3. CCn1c(-c2cnccc2COC)c2c3cc(ccc31)-c1cc(O)cc(c1)C[C@H](NC(=O)[C@H](C(C)C)N(C)C(=O)[C@H]1CCN(CCO)C1)C(=O)N1CCC[C@H](N1)C(=O)OCC(C)(C)C2 [Example A23]
1000 to 10000 nM

Item under review: CCn1c(-c2cnccc2COC)c2c3cc(ccc31)-c1cc(O)cc(c1)C[C@H](NC(=O)[C@H](C(C)C)N(C)C(=O)[C@H]1CCN(C(=O)N(C)C)C1)C(=O)N1CCC[C@H](N1)C(=O)OCC(C)(C)C2 [Example A42] . Reported IC50? 1000 to 10000 nM

Item under review: CCn1c(-c2cnccc2COC)c2c3cc(ccc31)-c1cc(O)cc(c1)C[C@H](NC(=O)[C@H](C(C)C)N(C)S(C)(=O)=O)C(=O)N1CCC[C@H](N1)C(=O)OCC(C)(C)C2 [Example A57] . Reported IC50? 1000 to 10000 nM

Item under review: C=CC(=O)N1CC[C@H](C(=O)N(C)[C@H](C(=O)N[C@H]2Cc3cc(O)cc(c3)-c3ccc4c(c3)c(c(-c3cc(C)cnc3[C@H](C)OC)n4CC)CC(C)(C)COC(=O)[C@@H]3CCCN(N3)C2=O)C(C)C)C1 [Example A167] . Reported IC50? 10 to 100 nM
